B1: CDC25A (parent)
chain: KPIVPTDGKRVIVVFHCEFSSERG

- Variants of: B1
- Protocol text: protein stability index of a GFP-peptide fusion (GPS, HEK-293T) (PSI 1-6); higher = more stable;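 further: lentivirally expressed fusions sorted by FACS into six bins by GFP to DsRed ratio, PSI derived from sequencing read proportions per bin multiplied by bin number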
- Condition notes: c terminus: a fixed tail appended
Examples of variants with documented protein stability index follow.
Please reply with the value in numeric form only.

Take a look at these entries with their results.
R23Y
2.99
E18G
2.55
D7M
2.53
R23T
3.36

Record request: protein stability index value, item "G24M"
3.17

Repeat for the following variant: "F15V"
2.84

Lookup "S21L"
3.4

And what about the variant "E18K" ?
4

What do you get for "I3G" ?
1.7

Source listed as the supplement of paper PMC10567573.
